- Method notes: logP determination by HPLC (reversed-phase C 18), EEC Directive 79/831 Annex V.A8
- Type: physicochemical
- Run parameters: pH 2.3, 0.1% aqueous phosphoric acid/acetonitrile, 43° C., read-out: log P (pH 2.3)

>  <Compound>
CC(C)(C)OC(=O)N1C(=O)CCC1c1ccc(-c2ccc(OS(=O)(=O)C(F)(F)C(F)(F)C(F)(F)C(F)(F)F)cc2)cc1 (stereo not shown)

>  <chromatographic logP>
5.44

$$$$
>  <Compound>
CN(C)S(=O)(=O)Oc1ccc(-c2ccccc2)cc1 [XIII-2, 1,1′-biphenyl-4-yl dimethylsulphamate]

>  <chromatographic logP>
3.51

$$$$
>  <Compound>
CC(C)(C)OC(=O)NC(CCC(=O)c1c(F)cccc1F)c1ccc(OS(=O)(=O)C(F)(F)F)cc1 (stereo not shown)

>  <chromatographic logP>
4.38

$$$$
>  <Compound>
O=S(=O)(Oc1ccc(-c2ccc(C3CCC(c4c(F)cccc4F)=N3)cc2)cc1)C(F)(F)C(F)(F)C(F)(F)C(F)(F)F (stereo not shown)

>  <chromatographic logP>
5.57

$$$$

---

- Method notes: logP determination by HPLC (reversed-phase C 18), EEC Directive 79/831 Annex V.A8
- Type: physicochemical
- Run parameters: pH 2.3, 0.1% aqueous phosphoric acid/acetonitrile, 43° C., read-out: log P (pH 2.3)
- Description: The logP values given in the tables and preparation examples above are determined in accordance with EEC Directive 79/831 Annex V.A8 by HPLC (High Performance Liquid Chromatography) using a reversed-phase column (C 18). Temperature: 43° C. In the acidic range, the determination is carried out at pH 2.3 using the mobile phases 0.1% aqueous phosphoric acid and acetonitrile; linear gradient from 10% acetonitrile to 90% acetonitrile. […]
Each item that follows carries a reported chromatographic logP.

>  <Compound>
CC(C)(C)OC(=O)N[C@H](CCC(=O)c1c(F)cccc1F)c1ccc(OS(=O)(=O)C(F)(F)F)cc1 [II-2]

>  <chromatographic logP>
4.37

$$$$
>  <Compound>
O=C1CCC(c2ccc(-c3ccc(OS(=O)(=O)C(F)(F)C(F)(F)C(F)(F)C(F)(F)F)cc3)cc2)N1 (stereo not shown) [IX-b-2]

>  <chromatographic logP>
4.21

$$$$
>  <Compound>
O=S(=O)(Oc1ccc(-c2ccccc2)cc1)C(F)(F)C(F)(F)C(F)(F)C(F)(F)F [XIII-1]

>  <chromatographic logP>
5.81

$$$$
>  <Compound>
CC(C)(C)OC(=O)NC(CCC(=O)c1c(F)cccc1F)c1ccc(-c2ccc(OS(=O)(=O)C(F)(F)C(F)(F)C(F)(F)C(F)(F)F)cc2)cc1 (stereo not shown) [II-3]

>  <chromatographic logP>
6.05

$$$$

---

- Method notes: logP determination by HPLC (reversed-phase C 18), EEC Directive 79/831 Annex V.A8
- Format: physicochemical
- Run parameters: reversed-phase C18 HPLC column, pH 2.3, 0.1% aqueous phosphoric acid/acetonitrile, 43° C., read-out: log P (pH 2.3)
Each item that follows carries a reported chromatographic logP.

>  <Compound>
CN(C)S(=O)(=O)Oc1ccc(-c2ccc(C3CCC(c4c(F)cccc4F)=N3)cc2)cc1 (stereo not drawn)

>  <chromatographic logP>
3.06

$$$$
>  <Compound>
CN(C)S(=O)(=O)Oc1ccc(-c2ccc(C3CCC(=O)N3)cc2)cc1 (stereo not drawn)

>  <chromatographic logP>
2.23

$$$$
>  <Compound>
CN(C)S(=O)(=O)Oc1ccc(-c2ccc(C(CCC(=O)c3c(F)cccc3F)NC(=O)OC(C)(C)C)cc2)cc1 (stereo not drawn)

>  <chromatographic logP>
4.25

$$$$
>  <Compound>
CN(C)S(=O)(=O)Oc1ccc(-c2ccc(C3CCC(=O)N3C(=O)OC(C)(C)C)cc2)cc1 (stereo not drawn)

>  <chromatographic logP>
3.31

$$$$
>  <Compound>
O=S(=O)(Oc1ccc([C@H]2CCC(c3c(F)cccc3F)=N2)cc1)C(F)(F)F

>  <chromatographic logP>
3.55

$$$$
>  <Compound>
CN(C)S(=O)(=O)Oc1ccc(-c2ccccc2C2CCC(=O)N2)cc1 (single isomer, unassigned; isomer 2) [“ortho” isomer]

>  <chromatographic logP>
2.28

$$$$
>  <Compound>
O=S(=O)(Oc1ccc(-c2ccc(C3CCC(c4c(F)cccc4F)=N3)cc2)cc1)C(F)(F)F (stereo not drawn)

>  <chromatographic logP>
4.15

$$$$
>  <Compound>
O=S(=O)(Oc1ccc(-c2ccc([C@H]3CCC(c4c(F)cccc4F)=N3)cc2)cc1)C(F)(F)F

>  <chromatographic logP>
4.27

$$$$
>  <Compound>
CC(C)(C)OC(=O)N1C(=O)CCC1c1ccc(OS(=O)(=O)C(F)(F)F)cc1 (stereo not drawn)

>  <chromatographic logP>
3.31

$$$$
>  <Compound>
CC(C)(C)OC(=O)N1C(=O)CC[C@@H]1c1ccc(OS(=O)(=O)C(F)(F)F)cc1

>  <chromatographic logP>
3.31

$$$$
>  <Compound>
O=S(=O)(Oc1ccc(C2CCC(c3c(F)cccc3F)=N2)cc1)C(F)(F)F (stereo not drawn)

>  <chromatographic logP>
3.49

$$$$
>  <Compound>
O=S(=O)(Oc1ccc(C2CCC(c3c(F)cccc3F)=N2)cc1)c1ccc(OC(F)(F)F)cc1 (stereo not drawn)

>  <chromatographic logP>
3.83

$$$$
